Reference source: the Immune Epitope Database (IEDB)

Molecular target: HLA-A*02:01
Experiment: IEDB peptide-MHC binding, purified MHC/direct/fluorescence; filed as Kd, often an IC50 or EC50 that approximates it; bounds were set here for any values at or beyond the usual limits of such assays
Conditions: source organism: Influenza A virus (A/Puerto Rico/8/1934(H1N1))
Result type: log10 of Kd (log10 of the value in nM)
The common logarithm of Kd in nM is what is listed.

| Record sequence | log10 of Kd |
| --- | --- |
| YLIRALTLNTM | 1.66 |
| WMMAMKYPITA | 1.88 |
| GMFNMLSTV | 1.36 |

IN: Find the recorded log10 of Kd belonging to `MMMGMFNMLST` and report it.
OUT: 1.56

----------
Molecular target: HLA-A*02:01
Test: IEDB peptide-MHC binding, purified MHC/direct/fluorescence; filed as Kd, often an IC50 or EC50 that approximates it; bounds were set here for any values at or beyond the usual limits of such assays
Details: source organism: Influenza A virus (A/Puerto Rico/8/1934(H1N1))
pKd: −log10 of the molar value.
Short version: pKd at least 7 is t, less is f.

Answered cases to consult:
| Record sequence | Discrete label |
| --- | --- |
| IILKANFSV | t |
| FLKDVMESM | t |
| FLLMDALKLSI | t |
| FMQALHLLL | t |
| WMMAMKYPI | t |

IN: Does the reported pKd for `MMGMFNMLSTV` fall at or above the 7 mark?
OUT: t

IN: Further, for `LLQNSQVYS` ?
OUT: f

IN: Further, for `FLAMITYMT` ?
OUT: f

IN: Further, for `GMFNMLSTVL` ?
OUT: f

IN: Further, for `FLARSALIL` ?
OUT: t

----------
Molecular target: HLA-A*02:01
Test: IEDB peptide-MHC binding, purified MHC/direct/fluorescence; filed as Kd, often an IC50 or EC50 that approximates it; bounds were set here for any values at or beyond the usual limits of such assays
Details: source organism: Influenza A virus (A/Puerto Rico/8/1934(H1N1))
Result type: Kd
Give me the value, and tack the unit on after it.

| Record sequence | Kd |
| --- | --- |
| VLMEWLKTRPI | 101 nM |

IN: Find the recorded Kd belonging to `SLVGIDPFRL` and report it.
OUT: 70 nM

IN: Further, for `RMGAVTTEV` ?
OUT: 133 nM
